Target: CK2 (casein kinase II)
measured attribute: IC50

Briefly, IC50 measured for OC[C@H]1O[C@@H](n2cnc3cc(Cl)c(Cl)cc32)[C@H](O)[C@@H]1O : ~10 µM
